Measured inhibition at 0.1 µM values are reported for all entries that follow.
# assay.system: 11β-HSD1 (Homo sapiens)
# procedure.details: biochemical
# condition.info: read-out: Average % inhibition at 100 nM
Number in %, nothing else.

# input Look up inhibition at 0.1 µM: C=CC[C@]1(c2ccccc2)CCN([C@@H](C)c2ccc(-c3cncc(F)c3)cc2)C(=O)O1
# output 93.4

# input Look up inhibition at 0.1 µM: C[C@@H](c1ccc(-c2cnc(C(C)(C)O)nc2)cc1)N1CC[C@](CC(C)(C)O)(c2ccccc2)OC1=O
# output 90.7

# input Look up inhibition at 0.1 µM: C[C@@H](c1ccc(-c2ncc(C(=O)NC(C)(C)C)s2)cc1)N1CC[C@](CC(C)(C)C#N)(c2ccccc2)OC1=O
# output 96.9

# input Look up inhibition at 0.1 µM: C[C@@H](c1ccc(-c2cnc(C(=O)NC3CC3)nc2)cc1)N1CC[C@](CC(C)(C)O)(c2ccccc2)OC1=O
# output 94.1

# input Look up inhibition at 0.1 µM: Cc1nccc(-c2ccc([C@H](C)N3CC[C@](CC(C)(C)C#N)(c4ccc(F)cc4)OC3=O)cc2)n1
# output 96.4

# input Look up inhibition at 0.1 µM: COc1ccc(-c2ccc([C@H](C)N3CC[C@](CCO)(c4ccccc4)OC3=O)cc2)cn1
# output 97.3

* * *

# assay.system: 11β-HSD1 (Homo sapiens, UniProt P28845)
# Sequence (P28845 whole entry): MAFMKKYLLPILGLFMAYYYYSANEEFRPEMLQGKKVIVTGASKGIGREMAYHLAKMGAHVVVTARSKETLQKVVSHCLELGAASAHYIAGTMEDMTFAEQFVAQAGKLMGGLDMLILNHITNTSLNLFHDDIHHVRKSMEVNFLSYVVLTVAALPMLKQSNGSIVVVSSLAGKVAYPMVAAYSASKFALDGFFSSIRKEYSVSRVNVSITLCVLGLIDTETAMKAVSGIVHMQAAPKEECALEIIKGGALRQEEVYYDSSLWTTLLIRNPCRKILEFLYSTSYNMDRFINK
# procedure.details: biochemical
# condition.info: IC50 Range, Biological Test Example 1
pIC50: −log10 of the molar value.
test.readout: pIC50

Worked examples, 3 compounds total:
Cc1cc(-c2ccc([C@H](C)N3CC[C@](CC(C)(C)O)(c4ccc(F)cc4)OC3=O)cc2)ccn1 [EXAMPLE 76] :: > 7.00
C[C@@H](c1ccc(-c2nccs2)cc1)N1CC[C@](CCCO)(c2ccc(F)cc2)OC1=O [EXAMPLE 82] :: > 7.00
Cc1cc(-c2ccc([C@H](C)N3CC[C@](CCC(=O)O)(c4ccc(F)cc4)OC3=O)cc2)ccn1 [EXAMPLE 77] :: > 7.00

# input Look up pIC50: C[C@@H](c1ccc(-c2cncc(C(N)=O)c2)cc1)N1CC[C@](CCCO)(c2ccc(F)cc2)OC1=O [EXAMPLE 71]
# output > 7.00

# input Look up pIC50: CC(C)[C@@]1(CC(C)(C)O)CCN([C@@H](C)c2ccc(-c3cnc(C(=O)NC4CC4)nc3)cc2)C(=O)O1 [EXAMPLE 199]
# output > 7.00

# input Look up pIC50: C[C@@H](c1ccc(-c2ccc(S(C)(=O)=O)cn2)cc1)N1CC[C@](CC(C)(C)O)(c2ccccc2)OC1=O [EXAMPLE 186]
# output > 7.00

# input Look up pIC50: C[C@@H](c1ccc(-c2ccccn2)cc1)N1CC[C@](CCC(N)=O)(c2ccc(F)cc2)OC1=O [EXAMPLE 60]
# output > 7.00

# input Look up pIC50: C[C@@H](c1ccc(-c2cncc(C#N)n2)cc1)N1CC[C@](CC(C)(C)O)(c2ccc(F)cc2)OC1=O [EXAMPLE 157]
# output > 7.00

# input Look up pIC50: Cc1cc(-c2ccc([C@H](C)N3CC[C@](CCO)(c4ccccc4)OC3=O)cc2)ccn1 [EXAMPLE 96]
# output > 7.00

# input Look up pIC50: C[C@@H](c1ccc(-c2ccc(C#N)cn2)cc1)N1CC[C@](CCCO)(c2ccccc2)OC1=O [EXAMPLE 110]
# output > 7.00

# input Look up pIC50: C[C@@H](c1ccc(-c2ccc(C(=O)NC(C)(C)C)cn2)cc1)N1CC[C@](CC(C)(C)C#N)(c2ccccc2)OC1=O [EXAMPLE 3]
# output > 7.00
